Reference source: paper PMC6309729

- target_under_test: cpFtsY(321C)-DACM (UniProt O80842)
- experimental_protocol: FRET or BRET
pKd: −log10 of the molar value.

substance: cpSRP54(234C)-BODIPY-FL (from UniProt P37107 76-564) (natural protein)
target_under_test: cpFtsY(321C)-DACM (UniProt O80842)
pKd: 5.15
